procedure_summary: in vivo
Design: species or system mice
measurement_conditions: athymic nude Foxn1^nu, mouse, iv, 13 MBq, total radioactivity
*1 amine or outer side, *2 acyl side, *3 side chain or, on linkers, in order; H or OH if unused. Where a SMILES comes first, the peptide text is derived from it. Bridges are numbered along the chain shown (N, C = ends). [ ]: non-standard residue; d: D form. The star is where a group is joined. NODAGA = O=C(O)CN1CCN(CC(=O)O)CCN(C(CCC(=O)*)C(=O)O)CC1; X1 = NC(=O)Nc1ccc(CC(N[*:1])C(=O)[*:2])cc1; Phe(4-Cl) = N[CH](Cc1ccc(Cl)cc1)C(=O)O
endpoint: tissue to tissue ratio
Lab note: record the figure alone, no unit after it.

Return reported tissue to tissue ratio; argument: CC(O)C1NC(=O)C(CCCCN)NC(=O)C(Cc2ccc(NC(N)=O)cc2)NC(=O)C(Cc2ccc(O)cc2)NC(=O)C(NC(=O)C(Cc2ccc(Cl)cc2)NC(=O)CCC(C(=O)O)N2CCN(CC(=O)O)CCN(CC(=O)O)CC2)CSSCC(C(=O)NC(Cc2ccc(O)cc2)C(N)=O)NC1=O (stereo not shown) [[^61Cu]Cu-NODAGA-LM3, metal not drawn] ({NODAGA}-[Phe(4-Cl)]CY[X1]KTCY-NH2; disulfide 2-7; configuration not given here)
4

---

procedure_summary: in vivo
measurement_conditions: athymic nude Foxn1^nu, mouse, 0.15 MBq, total radioactivity, Uptake Tumor
*1 amine or outer side, *2 acyl side, *3 side chain or, on linkers, in order; H or OH if unused. Where a SMILES comes first, the peptide text is derived from it. Bridges are numbered along the chain shown (N, C = ends). [ ]: non-standard residue; d: D form. The star is where a group is joined. NODAGA = O=C(O)CN1CCN(CC(=O)O)CCN(C(CCC(=O)*)C(=O)O)CC1; X1 = NC(=O)Nc1ccc(CC(N[*:1])C(=O)[*:2])cc1; Phe(4-Cl) = N[CH](Cc1ccc(Cl)cc1)C(=O)O
endpoint: tissue uptake at 4 h (%ID/g)
Enter your answer as a number in %ID/g; do not include the unit.

Return reported tissue uptake at 4 h; argument: CC(O)C1NC(=O)C(CCCCN)NC(=O)C(Cc2ccc(NC(N)=O)cc2)NC(=O)C(Cc2ccc(O)cc2)NC(=O)C(NC(=O)C(Cc2ccc(Cl)cc2)NC(=O)CCC(C(=O)O)N2CCN(CC(=O)O)CCN(CC(=O)O)CC2)CSSCC(C(=O)NC(Cc2ccc(O)cc2)C(N)=O)NC1=O (stereo not shown) [[^61Cu]Cu-NODAGA-LM3, metal not drawn] ({NODAGA}-[Phe(4-Cl)]CY[X1]KTCY-NH2; disulfide 2-7; configuration not given here)
37.9

---

procedure_summary: in vivo
measurement_conditions: female, athymic nude Foxn1^nu, mouse, iv, 0.15 MBq, total radioactivity, Uptake Kidney
*1 amine or outer side, *2 acyl side, *3 side chain or, on linkers, in order; H or OH if unused. Where a SMILES comes first, the peptide text is derived from it. Bridges are numbered along the chain shown (N, C = ends). [ ]: non-standard residue; d: D form. The star is where a group is joined. NODAGA = O=C(O)CN1CCN(CC(=O)O)CCN(C(CCC(=O)*)C(=O)O)CC1; X1 = NC(=O)Nc1ccc(CC(N[*:1])C(=O)[*:2])cc1; Phe(4-Cl) = N[CH](Cc1ccc(Cl)cc1)C(=O)O
endpoint: tissue uptake at 4 h (%ID/g)
Enter your answer as a number in %ID/g; do not include the unit.

Return reported tissue uptake at 4 h; argument: CC(O)C1NC(=O)C(CCCCN)NC(=O)C(Cc2ccc(NC(N)=O)cc2)NC(=O)C(Cc2ccc(O)cc2)NC(=O)C(NC(=O)C(Cc2ccc(Cl)cc2)NC(=O)CCC(C(=O)O)N2CCN(CC(=O)O)CCN(CC(=O)O)CC2)CSSCC(C(=O)NC(Cc2ccc(O)cc2)C(N)=O)NC1=O (stereo not shown) [[^61Cu]Cu-NODAGA-LM3, metal not drawn] ({NODAGA}-[Phe(4-Cl)]CY[X1]KTCY-NH2; disulfide 2-7; configuration not given here)
4.41
